Test: Hepatocyte stability assay (mouse)
Assay type: in vitro ADME
Settings: mouse, cryopreserved hepatocytes, 10 μM compound, 60 min, read-out: T½
# if value of half-life at 10 μM reaches 80 min, tag condition met; if it stays below, tag condition not met

# ENTRY_SMILES, GROUP
measured = [
    ("C=C(CC(=O)OC1(c2ccc(Cl)cn2)CCC1)C(=O)O", "condition met"),
    ("C=C(CC(=O)OC(C)(C)c1ccc(C(F)(F)F)cn1)C(=O)O", "condition met"),
]

Hi, just wondering whether `C=C(CC(=O)OC(C)(C)c1ccc(C(F)(F)F)cc1)C(=O)O` shows half-life at 10 μM of 80 min or higher.
condition not met

Hi, just wondering whether `C=C(CC(=O)OC1(c2ccc(C(F)(F)F)cc2)CS(=O)(=O)C1)C(=O)O` shows half-life at 10 μM of 80 min or higher.
condition not met

Hi, just wondering whether `C=C(C(=O)O)C(C)(C)C(=O)OC1(c2ccc(C(F)(F)F)cn2)CCC1` shows half-life at 10 μM of 80 min or higher.
condition met

Hi, just wondering whether `C=C(CC(=O)OC1(c2ccc(-c3ccc(C(F)(F)F)cc3)cc2)CCC1)C(=O)O` shows half-life at 10 μM of 80 min or higher.
condition not met

Hi, just wondering whether `C=C(CC(=O)OC1(c2ccc(C#N)cc2)CCC1)C(=O)O` shows half-life at 10 μM of 80 min or higher.
condition met

###

Test system: IL-6
Assay: THP-1 AlphaLISA IL-6 cytokine assay
Type: cell-based
Settings: Homo sapiens, THP-1, differentiated THP-1 cells, LPS 24 hr then Nigericin 1 hour
MEASURE_NAME: IC50

# COMPOUND, SYSTEM_UNDER_TEST, RESULT
rows = [
    ("C/C(=C\\C(=O)OC1(c2ccc(C(F)(F)F)cc2)CCC1)C(=O)O", "IL-6", "49.7 µM"),
    ("C=C(CC(=O)OC1(c2cc(F)c(C(F)(F)F)c(F)c2)CCC1)C(=O)O", "IL-6", "> 100 µM"),
    ("C=C(C(=O)O)C(C)(C)C(=O)OC1(c2ccc(C(F)(F)F)cn2)CCC1", "IL-6", "> 31.6 µM"),
]

Now consider the entry below.
Value wanted: IC50 (IL-6) of entry `C=C(CC(=O)OC1(c2ccc(C(F)(F)F)cc2)CC2(CCC2)C1)C(=O)O`
> 31.6 µM

###

Experiment: Hepatocyte stability assay (human)
Assay type: in vitro ADME
Settings: human, cryopreserved hepatocytes, 10 μM compound, 60 min, read-out: T½
Catalogue of half-life at 10 μM readings, one per entry.
Hi! Could you send only the number? It should be in h, unit omitted.

# ENTRY_SMILES, MEASURE_NAME, NUMERIC_RESULT
data = [
    ("C=C(CC(=O)OC1(c2ccc(C(F)(F)F)cn2)CC1)C(=O)O", "half-life at 10 μM", 6.2),
    ("C=C(CC(=O)O[C@H](c1ccc(C(F)(F)F)cc1)C(F)(F)F)C(=O)O", "half-life at 10 μM", 0.867),
    ("C=C(CC(=O)OC1(c2ccc(C(F)(F)F)c(Cl)c2)CCC1)C(=O)O", "half-life at 10 μM", 0.617),
]

Which half-life at 10 μM reading was recorded for the compound `C=C(CC(=O)O[C@@H](C)c1ccc(C(F)(F)F)cc1)C(=O)O` ?
2.45

Which half-life at 10 μM reading was recorded for the compound `C=C(CC(=O)OC1(c2ccc(C(F)(F)C(F)(F)F)cc2)CCC1)C(=O)O` ?
2.33
